- EXPERIMENT_DESCRIPTION: Cmax in double-cannulated Sprague-Dawley rat portal vein at 10 mg/kg, po
- Assay type: ADME, organism-based
- Parameters: dose 10 mg/kg, route oral
MEASUREMENT_KIND: Cmax (ng/mL)
Answers are plain numbers, in ng/mL.

I am curious: what Cmax value has been reported for Cc1nn(C[C@H](F)CN2C3CCC2CC(OCc2cccc(F)c2)C3)c(=O)n1C (stereo partly specified) ?
10600

====

- EXPERIMENT_DESCRIPTION: Blood clearance in cynomolgus monkey
- Type: ADME, organism-based, Macaca fascicularis
MEASUREMENT_KIND: clearance
Reply with a number, then the unit it belongs to.

I am curious: what clearance value has been reported for Cc1nn(C[C@H](F)CN2C3CCC2CC(OCc2cccc(F)c2)C3)c(=O)n1C (stereo partly specified) ?
22.3 mL/min/kg

====

- EXPERIMENT_DESCRIPTION: Half life in Sprague-Dawley rat at 1 mg/kg, iv
- Type: ADME, organism-based
- Parameters: dose 1 mg/kg, route intravenous
- SETUP_CONDITIONS: in vivo
MEASUREMENT_KIND: half-life (min)
Answers are plain numbers, in min.

I am curious: what half-life value has been reported for Cc1nn(C[C@H](F)CN2C3CCC2CC(OCc2cccc(F)c2)C3)c(=O)n1C (stereo partly specified) ?
51

====

- EXPERIMENT_DESCRIPTION: Volume of distribution at steady state in cynomolgus monkey at 1 mg/kg, iv in presence of ketoconazole
- Format: ADME, organism-based, Macaca fascicularis
- Set-up: dose 1 mg/kg, route intravenous
- SETUP_CONDITIONS: in vivo, read-out: Vdss
MEASUREMENT_KIND: Vd

I am curious: what Vd value has been reported for Cc1nn(C[C@H](F)CN2C3CCC2CC(OCc2cccc(F)c2)C3)c(=O)n1C (stereo partly specified) ?
3.29 L/kg

====

- EXPERIMENT_DESCRIPTION: Ratio of drug level in brain to plasma in MDR1A/1B knock-out mouse at 3 mg/kg, po
- Format: ADME, organism-based
- Parameters: dose 3 mg/kg, route oral
- SETUP_CONDITIONS: brain and plasma
MEASUREMENT_KIND: Kp

I am curious: what Kp value has been reported for Cc1nn(C[C@H](F)CN2C3CCC2CC(OCc2cccc(F)c2)C3)c(=O)n1C (stereo partly specified) ?
8.3

====

- EXPERIMENT_DESCRIPTION: Drug metabolism in beagle dog liver microsomes after 30 mins by biphasic component Michaelis-Menten plot analysis
- Format: ADME, Canis lupus familiaris
- SETUP_CONDITIONS: beagle, liver microsomes
MEASUREMENT_KIND: Km at 0.5 h (µM)
Give bare numbers, in µM.

I am curious: what Km at 0.5 h value has been reported for Cc1nn(C[C@H](F)CN2C3CCC2CC(OCc2cccc(F)c2)C3)c(=O)n1C (stereo partly specified) ?
21.5

====

- EXPERIMENT_DESCRIPTION: Half life in cynomolgus monkey at 1 mg/kg, iv in presence of ketoconazole
- Assay type: ADME, organism-based, Macaca fascicularis
- Design: dose 1 mg/kg, route intravenous
- SETUP_CONDITIONS: in vivo
MEASUREMENT_KIND: half-life (min)
Answers are plain numbers, in min.

I am curious: what half-life value has been reported for Cc1nn(C[C@H](F)CN2C3CCC2CC(OCc2cccc(F)c2)C3)c(=O)n1C (stereo partly specified) ?
118

====

- EXPERIMENT_DESCRIPTION: Blood clearance in beagle dog
- Type: ADME, organism-based, Canis lupus familiaris
MEASUREMENT_KIND: clearance (mL/min/kg)
One number for each entry, in mL/min/kg.

I am curious: what clearance value has been reported for Cc1nn(C[C@H](F)CN2C3CCC2CC(OCc2cccc(F)c2)C3)c(=O)n1C (stereo partly specified) ?
32.8

====

- EXPERIMENT_DESCRIPTION: Tmax in Sprague-Dawley rat at 30 mg/kg, po
- Format: ADME, organism-based
- Design: dose 30 mg/kg, route oral
- SETUP_CONDITIONS: in vivo
MEASUREMENT_KIND: Tmax (min)
One number for each entry, in min.

I am curious: what Tmax value has been reported for Cc1nn(C[C@H](F)CN2C3CCC2CC(OCc2cccc(F)c2)C3)c(=O)n1C (stereo partly specified) ?
15

====

- EXPERIMENT_DESCRIPTION: Half life in beagle dog at 10 mg/kg, po
- Format: ADME, organism-based, Canis lupus familiaris
- Set-up: dose 10 mg/kg, route oral
- SETUP_CONDITIONS: in vivo
MEASUREMENT_KIND: half-life (h)
Give bare numbers, in h.

I am curious: what half-life value has been reported for Cc1nn(C[C@H](F)CN2C3CCC2CC(OCc2cccc(F)c2)C3)c(=O)n1C (stereo partly specified) ?
1.82

====

- EXPERIMENT_DESCRIPTION: Half life in beagle dog at 3 mg/kg, po
- Format: ADME, organism-based, Canis lupus familiaris
- Design: dose 3 mg/kg, route oral
- SETUP_CONDITIONS: in vivo
MEASUREMENT_KIND: half-life
Reply with a number, then the unit it belongs to.

I am curious: what half-life value has been reported for Cc1nn(C[C@H](F)CN2C3CCC2CC(OCc2cccc(F)c2)C3)c(=O)n1C (stereo partly specified) ?
54.6 min

====

- EXPERIMENT_DESCRIPTION: Oral bioavailability in Sprague-Dawley rat at 10 mg/kg
- Type: ADME, organism-based
- SETUP_CONDITIONS: in vivo
MEASUREMENT_KIND: bioavailability
Reply with a number, then the unit it belongs to.

I am curious: what bioavailability value has been reported for Cc1nn(C[C@H](F)CN2C3CCC2CC(OCc2cccc(F)c2)C3)c(=O)n1C (stereo partly specified) ?
5.3%

====

- EXPERIMENT_DESCRIPTION: Cmax in cynomolgus monkey at 10 mg/kg, po in presence of ketoconazole
- Assay type: ADME, organism-based, Macaca fascicularis
- Set-up: dose 10 mg/kg, route oral
- SETUP_CONDITIONS: in vivo
MEASUREMENT_KIND: Cmax

I am curious: what Cmax value has been reported for Cc1nn(C[C@H](F)CN2C3CCC2CC(OCc2cccc(F)c2)C3)c(=O)n1C (stereo partly specified) ?
1520 ng/mL

====

- EXPERIMENT_DESCRIPTION: Tmax in beagle dog at 10 mg/kg, po
- Assay type: ADME, organism-based, Canis lupus familiaris
- Design: dose 10 mg/kg, route oral
- SETUP_CONDITIONS: in vivo
MEASUREMENT_KIND: Tmax
Reply with a number, then the unit it belongs to.

I am curious: what Tmax value has been reported for Cc1nn(C[C@H](F)CN2C3CCC2CC(OCc2cccc(F)c2)C3)c(=O)n1C (stereo partly specified) ?
30 min

====

- EXPERIMENT_DESCRIPTION: Cmax in beagle dog at 3 mg/kg, po
- Format: ADME, organism-based, Canis lupus familiaris
- Parameters: dose 3 mg/kg, route oral
- SETUP_CONDITIONS: in vivo
MEASUREMENT_KIND: Cmax (ng/mL)
Numbers only, in ng/mL.

I am curious: what Cmax value has been reported for Cc1nn(C[C@H](F)CN2C3CCC2CC(OCc2cccc(F)c2)C3)c(=O)n1C (stereo partly specified) ?
20

====

- EXPERIMENT_DESCRIPTION: Cmax in Sprague-Dawley rat at 10 mg/kg, po
- Type: ADME, organism-based
- Design: dose 10 mg/kg, route oral
- SETUP_CONDITIONS: in vivo
MEASUREMENT_KIND: Cmax (ng/mL)
One number for each entry, in ng/mL.

I am curious: what Cmax value has been reported for Cc1nn(C[C@H](F)CN2C3CCC2CC(OCc2cccc(F)c2)C3)c(=O)n1C (stereo partly specified) ?
200

====

- EXPERIMENT_DESCRIPTION: Solubility of the compound in phosphate buffered saline at pH 7 to 7.2
- Type: physicochemical
MEASUREMENT_KIND: solubility

I am curious: what solubility value has been reported for Cc1nn(C[C@H](F)CN2C3CCC2CC(OCc2cccc(F)c2)C3)c(=O)n1C (stereo partly specified) ?
> 2000 µg/mL

====

- EXPERIMENT_DESCRIPTION: Clearance in Sprague-Dawley rat at 1 mg/kg, iv
- Assay type: ADME, organism-based
- Parameters: dose 1 mg/kg, route intravenous
- SETUP_CONDITIONS: in vivo
MEASUREMENT_KIND: clearance (mL/min/kg)
Give bare numbers, in mL/min/kg.

I am curious: what clearance value has been reported for Cc1nn(C[C@H](F)CN2C3CCC2CC(OCc2cccc(F)c2)C3)c(=O)n1C (stereo partly specified) ?
53.5

====

- EXPERIMENT_DESCRIPTION: Oral bioavailability in Sprague-Dawley rat at 30 mg/kg
- Assay type: ADME, organism-based
- SETUP_CONDITIONS: in vivo
MEASUREMENT_KIND: bioavailability (%)
Answers are plain numbers, in %.

I am curious: what bioavailability value has been reported for Cc1nn(C[C@H](F)CN2C3CCC2CC(OCc2cccc(F)c2)C3)c(=O)n1C (stereo partly specified) ?
15.1
